Entry source: paper PMC2768106

- target.or.test.system: VEGFR-3 (vascular endothelial growth factor receptor-3, Flt-4) (Homo sapiens)
- Sequence (P35916 25-1363): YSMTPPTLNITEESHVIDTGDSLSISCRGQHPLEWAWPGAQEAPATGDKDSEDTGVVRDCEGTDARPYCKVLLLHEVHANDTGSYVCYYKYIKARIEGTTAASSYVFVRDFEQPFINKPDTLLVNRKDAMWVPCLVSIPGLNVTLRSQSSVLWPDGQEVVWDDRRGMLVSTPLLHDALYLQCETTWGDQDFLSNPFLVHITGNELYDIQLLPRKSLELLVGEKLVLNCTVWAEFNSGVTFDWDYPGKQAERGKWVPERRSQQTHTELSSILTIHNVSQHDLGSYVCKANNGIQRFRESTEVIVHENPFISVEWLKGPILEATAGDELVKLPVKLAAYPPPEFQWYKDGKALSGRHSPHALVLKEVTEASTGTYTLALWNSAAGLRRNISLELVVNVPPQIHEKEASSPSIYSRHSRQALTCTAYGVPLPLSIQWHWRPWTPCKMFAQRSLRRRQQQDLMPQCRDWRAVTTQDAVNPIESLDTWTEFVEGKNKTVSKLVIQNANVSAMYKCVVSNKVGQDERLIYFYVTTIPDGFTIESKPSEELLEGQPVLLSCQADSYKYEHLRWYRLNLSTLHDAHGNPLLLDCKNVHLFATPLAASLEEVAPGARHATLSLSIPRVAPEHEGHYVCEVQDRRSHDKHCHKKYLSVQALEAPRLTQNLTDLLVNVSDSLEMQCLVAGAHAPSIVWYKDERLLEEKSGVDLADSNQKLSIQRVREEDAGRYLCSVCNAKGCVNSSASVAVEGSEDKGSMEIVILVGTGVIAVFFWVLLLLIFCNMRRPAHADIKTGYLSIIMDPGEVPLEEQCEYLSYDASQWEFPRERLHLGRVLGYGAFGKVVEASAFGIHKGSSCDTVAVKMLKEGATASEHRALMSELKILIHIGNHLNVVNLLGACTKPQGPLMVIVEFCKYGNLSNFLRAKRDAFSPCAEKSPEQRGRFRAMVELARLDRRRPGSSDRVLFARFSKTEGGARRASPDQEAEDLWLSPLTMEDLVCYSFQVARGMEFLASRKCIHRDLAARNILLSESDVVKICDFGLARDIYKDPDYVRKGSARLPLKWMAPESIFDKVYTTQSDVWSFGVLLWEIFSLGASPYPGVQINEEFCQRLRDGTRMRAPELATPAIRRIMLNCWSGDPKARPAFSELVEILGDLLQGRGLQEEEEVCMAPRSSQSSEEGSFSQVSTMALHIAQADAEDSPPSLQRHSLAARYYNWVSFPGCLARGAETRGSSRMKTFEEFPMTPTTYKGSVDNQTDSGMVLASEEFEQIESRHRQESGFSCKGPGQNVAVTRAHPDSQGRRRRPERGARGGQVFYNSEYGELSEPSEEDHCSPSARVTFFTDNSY
- method.description: cell-free kinase (autophosphorylation) assay; also HUVEC cellular VEGFR-3 phosphorylation, IC50 […]
measured.parameter: IC50 (nM)
Kindly provide the numeric value in nM only, without the unit symbol.

Returns the measured IC50 for the input compound. Input: COc1cc2c(Oc3ccc(Nc4ccc(C(C)(C)C)cc4)cc3)ccnc2cc1OCCNCCO 4.3
